Test system: U266
measurement-description: MTS cell growth assay
Assay type: cell-based
condition-notes: Homo sapiens, U-266, U266, 24 hours treatment, read-out: IC50 (concentration at 50% inhibition), cell growth
recorded-endpoint: IC50

Query block: Sample Nc1cc(C(F)(F)F)c(-c2cc(N3CCOCC3)nc(N3CCOCC3)n2)cn1 [compound A] — what was its IC50?
Result block: 10 to 100 µM

----------
Tested on: ARK
measurement-description: MTS cell growth assay
Format: cell-based
condition-notes: Homo sapiens, 24 hours treatment, read-out: IC50 (concentration at 50% inhibition), cell growth
recorded-endpoint: IC50

Query block: Sample Nc1cc(C(F)(F)F)c(-c2cc(N3CCOCC3)nc(N3CCOCC3)n2)cn1 — what was its IC50?
Result block: 1 to 10 µM

Sourced from patent US20130310352A1
